# Tested on: Rat whole blood (RWB)
# MEASUREMENT_PROTOCOL: LTB4 secretion assay in RWB (rat whole blood)
# Assay type: cell-based
# EXPERIMENTAL_PARAMETERS: Rattus norvegicus
MEASURED_PROPERTY: EC50

Solved entries:
Nc1ccc2nc(NCc3ccc(OCCC(F)(F)F)cc3)[nH]c2c1    < 10 µM
Cn1c(NCc2ccc(Oc3cc(Cl)ncn3)cc2)nc2ccc(NC3COC3)cc21    > 20 µM
Cc1cc(Nc2ccc3nc(NCc4ccc(Oc5ncc(C(F)(F)F)cn5)cc4)n(C)c3c2)n[nH]1    < 10 µM

Could you now look at the following compound, please?
Request: What value of EC50 on Rat whole blood (RWB) does `CCn1c(NCc2ccc(Oc3ncc(Cl)cn3)cc2)nc2ccc(Nc3cc(C(F)(F)F)n(C)n3)cc21` have?
Response: < 10 µM

---

# TARGET_OR_SYSTEM: human 5-LOX (Homo sapiens)
# Construct: purchased Cayman 60402; host or cells: insect cells (lysate)
# Sequence (P09917 whole entry): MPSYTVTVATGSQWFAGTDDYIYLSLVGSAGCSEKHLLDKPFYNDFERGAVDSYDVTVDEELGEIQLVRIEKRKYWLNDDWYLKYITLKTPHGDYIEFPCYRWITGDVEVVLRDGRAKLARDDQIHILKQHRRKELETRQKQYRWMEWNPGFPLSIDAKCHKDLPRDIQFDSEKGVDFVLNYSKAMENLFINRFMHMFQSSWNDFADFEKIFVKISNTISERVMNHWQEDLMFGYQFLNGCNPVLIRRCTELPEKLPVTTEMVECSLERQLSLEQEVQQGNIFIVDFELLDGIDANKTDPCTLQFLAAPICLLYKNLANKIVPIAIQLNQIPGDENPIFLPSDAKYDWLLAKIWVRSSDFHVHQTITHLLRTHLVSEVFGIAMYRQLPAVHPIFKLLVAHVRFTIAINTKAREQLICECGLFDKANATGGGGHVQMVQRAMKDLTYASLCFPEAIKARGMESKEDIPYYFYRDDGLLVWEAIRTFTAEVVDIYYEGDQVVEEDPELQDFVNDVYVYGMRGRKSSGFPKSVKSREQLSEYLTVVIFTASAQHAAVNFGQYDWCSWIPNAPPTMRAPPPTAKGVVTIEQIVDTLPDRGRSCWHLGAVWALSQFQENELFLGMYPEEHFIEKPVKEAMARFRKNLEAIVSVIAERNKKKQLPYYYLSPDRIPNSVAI
# MEASUREMENT_PROTOCOL: 5-LOX enzyme activity, fluorescence method (5-HPETE, H2DCFDA)
# Assay type: biochemical
# EXPERIMENTAL_PARAMETERS: read-out: 5-LO (IC50)
# Protocol: The activity of compounds against 5-LOX were determined by measuring LTB4 (leukotriene B4) levels and/or by a fluorescence method. Both approaches are outlined in more detail below; The compound, in a dose response manner(0.5 nM to 10 uM), and enzyme mixture was pre-incubated for 5 minutes, and the enzymatic reaction was initiated by addition of ATP and arachidonic acid to a final concentration of 100 uM and 3 uM, respectively. […] All steps were carried out at room temperature.
MEASURED_PROPERTY: IC50

Cn1c(N(CCO)Cc2ccc(Oc3ccc(Cl)cn3)cc2)nc2ccc(N)cc21 [Compound 317]    < 1000 nM
Fc1ccc(CNc2nc3ccc(N4CCC(Oc5ccc(OC(F)(F)F)cc5)C4)cc3[nH]2)cc1 (centres unmarked) [Compound 77]    < 1000 nM
Cn1c(NCc2ccc(Oc3ncc(OC(F)(F)F)cn3)cc2)nc2ccc(N)cc21 [Compound 410]    < 1000 nM
CCC(Nc1nc2ccc(Nc3cc(C(F)(F)F)n(C)n3)cc2n1C)c1ccc(Oc2cnc(Cl)cn2)cc1 (centres unmarked) [Compound 517]    1000 to 10000 nM
FC(F)(F)Oc1ccc(OCCn2c(N3CCCC3)nc3cc(N4CCC4)ccc32)cc1 [Compound 85]    1000 to 10000 nM
CCN(CC)c1nc2cc(N)ccc2n1CCc1ccc(F)cc1 [Compound 47]    > 10000 nM

Request: What value of IC50 on human 5-LOX (Homo sapiens) does COC(c1ccc(CNc2nc3ccc(NC4COC4)cc3[nH]2)cc1)c1ccccn1 (centres unmarked) [Compound 189] have?
Response: < 1000 nM

Request: What value of IC50 on human 5-LOX (Homo sapiens) does Cn1c(NCc2ccc(Oc3ccc(Cl)cn3)cc2Cl)nc2ccc(N)cc21 [Compound 285] have?
Response: < 1000 nM

Request: What value of IC50 on human 5-LOX (Homo sapiens) does Nc1ccc2[nH]c(NCc3ccc4ccccc4c3)nc2c1 [Compound 81] have?
Response: < 1000 nM

---

# Test system: Rat whole blood (RWB)
# MEASUREMENT_PROTOCOL: LTB4 secretion assay in RWB (rat whole blood)
# Type: cell-based
# EXPERIMENTAL_PARAMETERS: Rattus norvegicus
pEC50: −log10 of the molar value.
MEASURED_PROPERTY: pEC50

CCn1c(NCc2ccc(Oc3ncc(Cl)cn3)cc2F)nc2ccc(Nc3cc(C)[nH]n3)cc21    > 5.00
Cn1c(NCc2ccc(Oc3ccc(Cl)cn3)cc2F)nc2ccc(NC3COC3)cc21    4.70 to 5.00
Cn1c(NCc2c(F)cc(Oc3ncc(Cl)cn3)cc2F)nc2ccc(N)cc21    > 5.00
Nc1ccc2nc(N)n(Cc3ccc(Oc4ccc(Cl)cn4)cc3)c2c1    > 5.00
CC(Nc1ccc2[nH]c(N(C)C)nc2c1)c1ccc(Oc2ccc(OC(F)(F)F)cc2)cc1 (centres unmarked)    < 4.70
CCn1c(NCc2ccc(Oc3ncc(C(F)(F)F)cn3)cc2)nc2ccc(Nc3ccn(C)n3)cc21    > 5.00

Request: Give the measured pEC50 of `Nc1ccc2nc(N)n(Cc3ccc(Oc4ccc(C(F)(F)F)cn4)cc3)c2c1` .
Response: > 5.00

Request: Give the measured pEC50 of `CCn1c(NCc2ccc(Oc3ncc(Cl)cn3)cc2)nc2ccc(Nc3cc(C)[nH]n3)cc21` .
Response: > 5.00
